Where these numbers come from: paper PMC8213153

experiment: Cytotoxicity (MTT) assay of single and dual combinatory drugs; format: cell-based; details: human, HYDROXYCHLOROQUINE-DOXYCYCLINE series; 100 μg/mL; read-out: Cell viability (%)
Measured viability at 48 h, 100 μg/mL, listed per entry for reference.
assay metric: viability at 48 h, 100 μg/mL (%)

[[record]]
compound = "CCN(CCO)CCCC(C)Nc1ccnc2cc(Cl)ccc12 (centres unmarked) [HCQ, Hydroxychloroquine]"
assay_metric = "viability at 48 h, 100 μg/mL"
quantitative_readout = 62.1

[[record]]
compound = "C[C@H]1c2cccc(O)c2C(=O)C2=C(O)[C@]3(O)C(=O)C(C(N)=O)=C(O)[C@@H](N(C)C)[C@@H]3[C@@H](O)[C@@H]21 [DOXY, Doxycycline]"
assay_metric = "viability at 48 h, 100 μg/mL"
quantitative_readout = 120


---

experiment: Cytotoxicity (MTT) assay of single and dual combinatory drugs; type: cell-based; conditions: human, HYDROXYCHLOROQUINE-LOPIRITO series; 2 μg/mL; read-out: Cell Viability (%)
assay metric: viability at 48 h, 2 μg/mL (%)

[[record]]
compound = "CCN(CCO)CCCC(C)Nc1ccnc2cc(Cl)ccc12 (stereo not shown) [HCQ, Hydroxychloroquine]"
assay_metric = "viability at 48 h, 2 μg/mL"
quantitative_readout = 61.7


---

Measured viability at 48 h, 2 μg/mL, listed per entry for reference.
assay: Cytotoxicity (MTT) assay of single and dual combinatory drugs; type: cell-based; conditions: human, HYDROXYCHLOROQUINE-DOXYCYCLINE series; 2 μg/mL; read-out: Cell viability (%)
assay metric: viability at 48 h, 2 μg/mL (%)

[[record]]
compound = "C[C@H]1c2cccc(O)c2C(=O)C2=C(O)[C@]3(O)C(=O)C(C(N)=O)=C(O)[C@@H](N(C)C)[C@@H]3[C@@H](O)[C@@H]21"
assay_metric = "viability at 48 h, 2 μg/mL"
quantitative_readout = 112

[[record]]
compound = "CCN(CCO)CCCC(C)Nc1ccnc2cc(Cl)ccc12 (centres unmarked) [HCQ, Hydroxychloroquine]"
assay_metric = "viability at 48 h, 2 μg/mL"
quantitative_readout = 97


---

Assay: Cytotoxicity (MTT) assay of single and dual combinatory drugs
Format: cell-based
Details: human, LOPIRITO-AZITHROMYCIN series; 2 μg/mL; read-out: Viability Cell (%)
Experimental: Each tablet containing drugs was triturated and mixed until homogenous. Approximately 50 mg equivalent mass of drugs were weighed and added to dimethyl sulfoxide in order to solubilize the drugs. […] The samples were prepared by diluting the stock solution of each drug with RPMI complete media at an appropriate level of dilution to produce a determined concentration. […] In this study, the cytotoxicity assay was evaluated for single and dual combinatory drugs during a period of 48 hours of drug incubation. […]
assay metric: viability at 48 h, 2 μg/mL (%)

[[record]]
molecular_string = "CC[C@H]1OC(=O)[C@H](C)[C@@H](O[C@H]2C[C@@](C)(OC)[C@@H](O)[C@H](C)O2)[C@H](C)[C@@H](O[C@@H]2O[C@H](C)C[C@H](N(C)C)[C@H]2O)[C@](C)(O)C[C@@H](C)CN(C)[C@H](C)[C@@H](O)[C@]1(C)O"
assay_metric = "viability at 48 h, 2 μg/mL"
quantitative_readout = 81.2


---

tested on: IL-6; assay: IL-6 level of virus-infected Vero cells (ELISA); type: cell-based; conditions: 15 μg/mL; 24-h
Measured IL-6, listed per entry for reference.
assay metric: IL-6

[[record]]
compound = "C[C@H]1c2cccc(O)c2C(=O)C2=C(O)[C@]3(O)C(=O)C(C(N)=O)=C(O)[C@@H](N(C)C)[C@@H]3[C@@H](O)[C@@H]21 [DOXY, Doxycycline]"
assay_system = "IL-6"
result = "13.34 ± 0.86 ng/L"

[[record]]
compound = "CC[C@H]1OC(=O)[C@H](C)[C@@H](O[C@H]2C[C@@](C)(OC)[C@@H](O)[C@H](C)O2)[C@H](C)[C@@H](O[C@@H]2O[C@H](C)C[C@H](N(C)C)[C@H]2O)[C@](C)(O)C[C@@H](C)CN(C)[C@H](C)[C@@H](O)[C@]1(C)O [AZI, Azithromycin]"
assay_system = "IL-6"
result = "14.55 ± 2.22 ng/L"

[[record]]
compound = "CCN(CCO)CCCC(C)Nc1ccnc2cc(Cl)ccc12 (stereo not shown) [HCQ, Hydroxychloroquine]"
assay_system = "IL-6"
result = "15.91 ± 1.41 ng/L"

[[record]]
compound = "NC(=O)c1nc(F)c[nH]c1=O [FAVI, Favipiravir]"
assay_system = "IL-6"
result = "22.18 ± 1.09 ng/L"

